Target: recombinant human 15-PGDH (Homo sapiens, UniProt P15428)
Construct: purchased R&D Systems
Sequence (P15428 whole entry): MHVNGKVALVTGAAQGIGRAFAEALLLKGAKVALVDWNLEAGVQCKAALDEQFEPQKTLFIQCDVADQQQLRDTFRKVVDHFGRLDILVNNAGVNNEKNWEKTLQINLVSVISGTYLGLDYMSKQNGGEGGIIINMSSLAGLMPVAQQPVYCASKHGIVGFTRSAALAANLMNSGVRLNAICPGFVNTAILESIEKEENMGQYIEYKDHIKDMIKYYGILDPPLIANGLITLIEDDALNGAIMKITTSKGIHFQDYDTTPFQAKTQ
Assay: 15-PGDH enzyme inhibition test
Assay type: biochemical
Conditions: 4 nM recombinant human 15-PGDH, 30 μM PGE2, 1 mM NAD+, 60 minutes after starting the reaction; read-out: IC50 Value
pIC50: −log10 of the molar value.
quantity measured: pIC50

Cn1nc2cc(N3CCOc4cc(C(=O)N5CCCCC5)cnc43)cc(-n3ccnc3)n2c1=O [Example 11-4] ... 7.00 to 8.00
COCCNC(=O)c1ccc(N2CCCc3cc(C(=O)N4CCCCC4)cnc32)cc1F [Example 1-60] ... > 8.00
O=C(c1cnc2c(c1)OCCN2c1ccn2cnnc2c1)N1CCCCC1 [Example 1-105] ... > 8.00

Query: Reported pIC50 for CC1c2cc(N3CCOc4cc(C(=O)N5CCCCC5)cnc43)ccc2C(=O)N1C (single isomer, unassigned) [16-1 Isomer B] : what is it?
Response: > 8.00
